The origin of these recorded values is paper PMC2756588.

Documented SPOT intensity across a set of binders
Molecular target: T1, Nbp2, Q12163
T1 sequence (Q12163 103-180, looked up): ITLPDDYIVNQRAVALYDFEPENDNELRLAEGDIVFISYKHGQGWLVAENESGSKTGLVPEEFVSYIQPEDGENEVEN
Experiment: SPOT array
Conditions: median of control spots 357
API doc: respond with a numeric literal and nothing else, no unit.

NRPAIRIPSLKKPAL 2

Which value of SPOT intensity has been reported for NRLRKRLNLPSEISI in the records?
32

Which value of SPOT intensity has been reported for LFMKGTPEFPKSGFS in the records?
5
